Tested on: Mycobacterium tuberculosis
Assay: Cornell - Phenotypic assay to identify agents that inhibit growth of Mycobacterium tuberculosis
Format: functional
Set-up: scale not given: direction of the effect not stated beside the values
Details: 10 mM as filed; unlikely as a test dose
About 900 (1.7%) of roughly 53,000 compounds showed an effect of 50% or more. For the sample, strong results were picked, then their nearest neighbours and some compounds at random.
endpoint name: Percent Effect (%)
Provide the reading as a plain figure in %.

For "Nc1nnc(SCC(=O)c2cc3c(cc2Cl)NC(=O)C3)s1" , what is its reported Percent Effect?
9.185

Also check "CCN1C(=O)CC[C@@H]2N(C(=O)CCn3nccc3C)CCCC[C@@]21C"
10.33

Also check "CCc1ccc(CN(CCCn2ccnc2)Cc2ccc(C)s2)o1.O=C(O)CC(O)(CC(=O)O)C(=O)O"
67.99

Also check "CN1CCC2(CC1)C(=O)N(CC1CC1)c1ccccc12.O=C(O)C(F)(F)F"
8.295

Also check CC1N(c2cnn(C)c2)C(=O)COC12CCN(Cc1ccco1)CC2.O=C(O)C(F)(F)F (stereo not given)
2.626

Also check "Cc1ccc(CN(CCCn2ccnc2)Cc2ccccc2O)s1.O=C(O)CC(O)(CC(=O)O)C(=O)O"
-13.23

Also check Cc1ccc(CN2CCN(c3ncccc3C(N)=O)CC2CCO)cc1 (stereo not given)
16.45

Also check "CCN(CC)S(=O)(=O)CC(=O)N1CCc2ccc(Cl)cc21"
4.859

Also check "CSc1nsc(SCC(=O)c2cc3c(cc2Cl)NC(=O)C3)n1"
71.22

Also check "Cc1nnc(SCC(=O)c2cc3c(cc2Cl)NC(=O)C3)s1"
21.14
